- Tested on: TNFα
- Protocol: cells
- Type: cell-based, human
- Conditions Used: Homo sapiens, Monocyte, LPS-stimulated human monocytes, TNFα content; read-out: EC50 TNF
pEC50: −log10 of the molar value.
Catalogue of pEC50 readings, one per entry.

| Compound | Bound Operator | pEC50 |
| --- | --- | --- |
| CC(=O)Nc1nc(NC(=O)c2cnc(-c3ccc4cc(C#N)cnn34)cc2NC(C)C)cs1 [Example 493] | < | 5.00 |
| CC(C)(F)CNC(=O)c1cnc(-c2ccc3cc(C#N)cnn23)cc1NC12CCC(O)(CC1)CC2 [Example 740] | = | 6.58 |
| CC(C)(O)[C@H](F)CNC(=O)c1cnc(-c2ccc3cc(C#N)cnn23)cc1NC1C2CCC1CN(S(C)(=O)=O)C2 (stereo partly shown) [Example 31] | = | 6.12 |
| CC(C)(O)[C@H](F)CNC(=O)c1cnc(-c2ccc3cc(C#N)cnn23)cc1Nc1ccn2ccnc2c1 [Example 570] | = | 7.10 |
| CC(=O)N1CCC[C@@H](Nc2cc(-c3ccc4cc(C#N)cnn34)ncc2C(=O)NC[C@@H](F)C(C)(C)O)C1 [Example 253] | = | 6.29 |
| CNc1ccc(Nc2cc(-c3ccc4cc(C#N)cnn34)ncc2C(=O)NC[C@@H](F)C(C)(C)O)cn1 [Example 661] | = | 7.72 |
| CC(C)(O)[C@H](F)CNC(=O)c1cnc(-c2ccc3cc(C#N)cnn23)cc1Nc1ccc(-c2cnco2)nc1 [Example 625] | = | 7.66 |
| Cc1nnc(NC[C@H]2C[C@H](Nc3cc(-c4ccc5cc(C#N)cnn45)ncc3C(=O)NC[C@@H](F)C(C)(C)O)C2)o1 [Example 694] | = | 6.99 |
| CC(C)Nc1cc(-c2ccc3cc(C#N)cnn23)ncc1C(=O)N[C@@H]1CCOC[C@H]1F [Example 323] | = | 6.73 |
| CC(C)(O)[C@H](F)CNC(=O)c1cnc(-c2ccc3cc(C#N)cnn23)cc1N[C@@H]1CCOC[C@@H]1F [Example 57] | = | 7.34 |
| N#Cc1cnn2c(-c3cc(NC45CCC(O)(CC4)CC5)c(C(=O)NCC(=O)N4CCN(C5COC5)CC4)cn3)ccc2c1 [Example 796] | = | 7.12 |
| N#Cc1cnn2c(-c3cc(NC45CCC(O)(CC4)CC5)c(C(=O)NCC4(CO)COC4)cn3)ccc2c1 [Example 711] | = | 6.64 |
| CC(C)(O)[C@H](F)CNC(=O)c1cnc(-c2ccc3cc(C#N)cnn23)cc1N[C@@H]1CCN(S(C)(=O)=O)C1 [Example 53] | = | 7.19 |
| CC(C)(O)[C@H](F)CNC(=O)c1cnc(-c2ccc3cc(C#N)cnn23)cc1NC12CCC(O)(CC1)C2 [Example 403] | = | 7.85 |
| CC(C)(O)[C@H](F)CNC(=O)c1cnc(-c2ccc3cc(C#N)cnn23)cc1NC12CCC(C(=O)N3CC(C(F)F)C3)(CC1)CC2 [Example 393] | = | 7.36 |
| CC(C)(O)[C@H](F)CNC(=O)c1cnc(-c2ccc3cc(C#N)cnn23)cc1Nc1ccc(N2CCOCC2)nc1 [Example 673] | = | 7.72 |
| CC(C)(O)[C@H](F)CNC(=O)c1cnc(-c2ccc3cc(C#N)cnn23)cc1Nc1cnn([C@@H]2CCNC2)c1 [Example 208] | = | 7.04 |
| CC(C)COC(=O)N[C@H]1CC[C@H](Nc2cc(-c3ccc4cc(C#N)cnn34)ncc2C(=O)NC[C@@H](F)C(C)(C)O)CC1 [Example 290] | = | 6.92 |
| COC(=O)N1CC(CNC(=O)c2cnc(-c3ccc4cc(C#N)cnn34)cc2NC23CCC(O)(CC2)CC3)C1 [Example 744] | = | 6.80 |

Recorded values, source patent US10336762B2.
